subject.of.test: human Ephrin type-B Receptor 1 (EphB1), EPHB1 (gene 2047) (UniProt P54762)
Sequence (P54762 whole entry, looked up): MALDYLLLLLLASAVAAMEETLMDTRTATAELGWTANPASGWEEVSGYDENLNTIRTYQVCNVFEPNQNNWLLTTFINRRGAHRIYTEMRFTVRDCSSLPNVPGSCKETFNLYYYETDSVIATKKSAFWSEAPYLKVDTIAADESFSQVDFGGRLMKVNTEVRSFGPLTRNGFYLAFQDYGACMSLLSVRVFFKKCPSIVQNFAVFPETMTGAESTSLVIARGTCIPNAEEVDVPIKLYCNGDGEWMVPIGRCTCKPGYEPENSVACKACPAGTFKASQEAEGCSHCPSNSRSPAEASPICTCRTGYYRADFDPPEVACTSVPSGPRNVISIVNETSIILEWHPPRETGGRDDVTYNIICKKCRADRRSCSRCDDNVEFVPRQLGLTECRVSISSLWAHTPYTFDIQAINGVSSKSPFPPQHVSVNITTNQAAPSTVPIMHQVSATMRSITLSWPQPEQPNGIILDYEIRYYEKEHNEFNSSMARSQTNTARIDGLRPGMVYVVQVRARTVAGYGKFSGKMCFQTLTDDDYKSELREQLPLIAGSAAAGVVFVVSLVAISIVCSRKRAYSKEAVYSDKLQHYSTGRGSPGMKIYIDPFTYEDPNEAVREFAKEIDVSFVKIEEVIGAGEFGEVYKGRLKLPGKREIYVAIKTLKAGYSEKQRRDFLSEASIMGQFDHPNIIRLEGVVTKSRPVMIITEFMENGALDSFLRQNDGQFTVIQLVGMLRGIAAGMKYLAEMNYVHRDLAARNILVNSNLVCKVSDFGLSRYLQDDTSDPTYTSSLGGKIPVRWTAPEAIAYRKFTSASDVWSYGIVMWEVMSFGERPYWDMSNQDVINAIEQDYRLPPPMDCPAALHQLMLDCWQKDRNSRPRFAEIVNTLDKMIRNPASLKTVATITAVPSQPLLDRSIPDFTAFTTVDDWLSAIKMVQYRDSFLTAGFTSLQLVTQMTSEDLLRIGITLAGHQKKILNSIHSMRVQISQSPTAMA
test.protocol: NVS_ENZ_hEphB1: NovaScreen (NVS) Enzymatic Assay for human Ephrin type-B Receptor 1 (EphB1) (AID 2283154)
Records with an inconclusive call do not appear. Calls of active or inactive are those of the source. The calls were made as follows: active = hit-call score of the fitted dose curve at least 0.9, where 1 is the maximum; inconclusive = response in the unintended direction; inactive = score below 0.9.
measure: outcome

Worked examples follow.
INSERT INTO measurements (compound, subject_of_test, experimental_value) VALUES
  ('CCCCOC(=O)c1ccccc1C(=O)OCCCC', 'human Ephrin type-B Receptor 1 (EphB1), EPHB1 (gene 2047) (UniProt P54762)', 'inactive'),
  ('N#Cc1cc(Br)c(O)c(Br)c1', 'human Ephrin type-B Receptor 1 (EphB1), EPHB1 (gene 2047) (UniProt P54762)', 'inactive'),
  ('COC(=O)C(C)Oc1ccc(Oc2ccc(Cl)cc2Cl)cc1 (stereo unspecified)', 'human Ephrin type-B Receptor 1 (EphB1), EPHB1 (gene 2047) (UniProt P54762)', 'inactive'),
  ('CC1COC(Cn2cncn2)(c2ccc(Oc3ccc(Cl)cc3)cc2Cl)O1 (stereo unspecified)', 'human Ephrin type-B Receptor 1 (EphB1), EPHB1 (gene 2047) (UniProt P54762)', 'inactive'),
  ('COc1ccc(C(c2ccc(OC)cc2)C(Cl)(Cl)Cl)cc1', 'human Ephrin type-B Receptor 1 (EphB1), EPHB1 (gene 2047) (UniProt P54762)', 'inactive');

outcome value, target or system human Ephrin type-B Receptor 1 (EphB1), EPHB1 (gene 2047) (UniProt P54762), for CCCCNC(=O)n1c(NC(=O)OC)nc2ccccc21 : inactive

* * *

subject.of.test: chimpanzee Androgen Receptor (AR), AR (gene 747460)
test.protocol: NVS_NR_cAR: NovaScreen (NVS) Nuclear Receptor Binding Assay for chimpanzee Androgen Receptor (AR) (AID 2283346);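 also: radioligand displacement from AR measured by scintillation counting in a cell-free assay; a loss of bound radioligand signal versus DMSO counts as binding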
Results filed as inconclusive are left out. The source made the active and inactive calls. The calls were made as follows: active = hit-call score of the fitted dose curve at least 0.9, where 1 is the maximum; inconclusive = response in the unintended direction; inactive = score below 0.9.
Permitted responses: y for active, n for inactive

Examples from the recorded data:
INSERT INTO assay_data (compound, category_label) VALUES
  ('C=CCC1=C(C)C(OC(=O)C2C(C=C(C)C)C2(C)C)CC1=O (stereo not given)', 'n'),
  ('C=CC1(C)OC(=O)N(c2cc(Cl)cc(Cl)c2)C1=O (stereo not given)', 'n'),
  ('CON(C)C(=O)Nc1ccc(Cl)c(Cl)c1', 'y'),
  ('CCCCOC(=O)c1ccccc1C(=O)OCCCC', 'n');

Proceed to the following item.
Query :: Short answer needed: outcome of this test for CCCC1COC(Cn2cncn2)(c2ccc(Cl)cc2Cl)O1 (stereo not given) ?
Result :: y

* * *

test.protocol: CCTE_Shafer_MEA_dev_burst_rate: CCTE's Neural Network Formation Assay for Burst Rate, Shafer Lab (AID 2284042)
Activity calls are given as the source filed them. How the source made its calls: active means hit-call score of the fitted dose curve at least 0.9, where 1 is the maximum; inactive means score below 0.9.
Permitted responses: Y = active, N = inactive

Examples from the recorded data:
INSERT INTO measurements (compound, category_label) VALUES
  ('CNC(=O)ON=CC(C)(C)SC', 'N'),
  ('COP(N)(=O)SC (stereo not given)', 'N'),
  ('Cc1c(F)c(F)c(COC(=O)C2C(/C=C(\Cl)C(F)(F)F)C2(C)C)c(F)c1F (stereo not given)', 'Y'),
  ('CN(C)C(=S)SSC(=S)N(C)C', 'Y'),
  ('CCNc1nc(Cl)nc(NC(C)C)n1', 'N');

Query :: Short answer needed: outcome of this test for COc1ccc(C(c2ccc(OC)cc2)C(Cl)(Cl)Cl)cc1 ?
Result :: N

Query :: Short answer needed: outcome of this test for C=CCC1=C(C)[C@@H](OC(=O)[C@@H]2[C@@H](C=C(C)C)C2(C)C)CC1=O ?
Result :: N

Query :: Short answer needed: outcome of this test for CCCCOC(=O)c1ccccc1C(=O)OCCCC ?
Result :: N

Query :: Short answer needed: outcome of this test for N#Cc1nn(-c2c(Cl)cc(C(F)(F)F)cc2Cl)c(N)c1S(=O)C(F)(F)F (stereo not given) ?
Result :: N

Query :: Short answer needed: outcome of this test for COP(=S)(OC)Oc1nc(Cl)c(Cl)cc1Cl ?
Result :: N

* * *

Read-out: Vascular cell adhesion molecule 1 (VCAM1), VCAM1 (gene 7412)
test.protocol: BSK_LPS_VCAM1: BioMAP Diversity Plus: LPS Assay for Vascular cell adhesion molecule 1 (VCAM1) Biomarker Activity (AID 2283086)
condition.context: primary human HUVEC with PBMC; actives raise or lower the signal
Calls of active or inactive are those of the source. The calls were made as follows: active = hit-call score of the fitted dose curve at least 0.9, where 1 is the maximum; inactive = score below 0.9.
measure: AC50

Worked examples follow.
INSERT INTO assay_data (compound, experimental_value) VALUES
  ('O=C(O)c1nc(Cl)ccc1Cl', 'inactive'),
  ('CC(C)Oc1cc(-n2nc(C(C)(C)C)oc2=O)c(Cl)cc1Cl', '31.7 µM (active)'),
  ('CNC(=O)ON=CC(C)(C)SC', 'inactive'),
  ('CCc1nn(C)c(C(=O)NCc2ccc(C(C)(C)C)cc2)c1Cl', '19.4 µM (active)'),
  ('COc1nc(C)nc(NC(=O)NS(=O)(=O)c2ccccc2Cl)n1', 'inactive');

Per the records, this compound ( Cc1c(F)c(F)c(COC(=O)C2C(/C=C(\Cl)C(F)(F)F)C2(C)C)c(F)c1F (configuration not stated) ) has AC50 equal to 12 µM (active)

Per the records, this compound ( CCOc1cc(Oc2ccc(C(F)(F)F)cc2Cl)ccc1[N+](=O)[O-] ) has AC50 equal to inactive

Per the records, this compound ( CCCN(CCC)c1c([N+](=O)[O-])cc(S(N)(=O)=O)cc1[N+](=O)[O-] ) has AC50 equal to 34.6 µM (active) [middle of 4 runs]

* * *

subject.of.test: rat Peripheral-type Benzodiazepine Receptor (PBR), Tspo (gene 24230) (UniProt P16257)
Sequence (P16257 whole entry, looked up): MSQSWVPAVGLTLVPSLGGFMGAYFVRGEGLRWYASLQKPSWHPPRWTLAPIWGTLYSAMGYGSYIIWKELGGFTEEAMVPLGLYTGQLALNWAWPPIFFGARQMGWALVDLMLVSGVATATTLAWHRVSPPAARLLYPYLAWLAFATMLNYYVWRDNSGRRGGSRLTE
test.protocol: NVS_MP_rPBR: NovaScreen (NVS) Membrane Protein Assay for rat Peripheral-type Benzodiazepine Receptor (PBR) (AID 2283335)
Results filed as inconclusive are left out. Calls of active or inactive are those of the source. How the source made its calls: active means hit-call score of the fitted dose curve at least 0.9, where 1 is the maximum; inconclusive means response in the unintended direction; inactive means score below 0.9.
Permitted responses: label 1 (active), label 0 (inactive)

INSERT INTO results (compound, category_label) VALUES
  ('OC(c1ccc(Cl)cc1)(c1cncnc1)c1ccccc1Cl (stereo not drawn)', 'label 1'),
  ('CNC(=S)S', 'label 0'),
  ('COC(=O)N(OC)c1ccccc1COc1ccn(-c2ccc(Cl)cc2)n1', 'label 1'),
  ('O=C(Nc1ccccc1)Nc1ccnc(Cl)c1', 'label 1'),
  ('CCOC(=O)C(Cl)Cc1cc(-n2nc(C)n(C(F)F)c2=O)c(F)cc1Cl (stereo not drawn)', 'label 1'),
  ('CCOC(=O)CC(SP(=S)(OC)OC)C(=O)OCC (stereo not drawn)', 'label 1'),
  ('COc1ccc(C(c2ccc(OC)cc2)C(Cl)(Cl)Cl)cc1', 'label 0'),
  ('C#CCOS(=O)OC1CCCCC1Oc1ccc(C(C)(C)C)cc1 (stereo not drawn)', 'label 1');

Proceed to the following item.
Query :: Short answer needed: outcome of this test for CO/C=C(/C(=O)OC)c1ccccc1Oc1cc(Oc2ccccc2C#N)ncn1 ?
Result :: label 1

* * *

Read-out: Bcl-2 (BAX) gene, BAX (gene 581)
test.protocol: LTEA_HepaRG_BAX: Life Technologies and Expression Analysis (LTEA) Assay for Bcl-2 (BAX) gene using HepaRG (AID 2283470)
condition.context: mRNA level, 48 h; actives raise or lower the signal
Active and inactive are the calls of the source. How the source made its calls: active means hit-call score of the fitted dose curve at least 0.9, where 1 is the maximum; inactive means score below 0.9.
Permitted responses: active, inactive

Examples from the recorded data:
INSERT INTO results (molecule, category_label) VALUES
  ('COC(=O)C(C)Oc1ccc(Oc2ccc(Cl)cc2Cl)cc1 (centres undefined)', 'inactive'),
  ('O=C(Nc1ccccc1)Nc1ccnc(Cl)c1', 'inactive'),
  ('COC(=O)C=C(C)OP(=O)(OC)OC', 'inactive'),
  ('Cc1c(F)c(F)c(COC(=O)C2C(/C=C(\Cl)C(F)(F)F)C2(C)C)c(F)c1F (centres undefined)', 'inactive'),
  ('N#CC(CCc1ccc(Cl)cc1)(Cn1cncn1)c1ccccc1 (centres undefined)', 'active'),
  ('OC(c1ccc(Cl)cc1)(c1cncnc1)c1ccccc1Cl (centres undefined)', 'active'),
  ('C=CCC1=C(C)[C@@H](OC(=O)[C@@H]2[C@@H](C=C(C)C)C2(C)C)CC1=O', 'inactive'),
  ('CC(C)Oc1cc(-n2nc(C(C)(C)C)oc2=O)c(Cl)cc1Cl', 'inactive');

Query :: Short answer needed: outcome of this test for CCCCC(CC)COC(=O)c1ccccc1C(=O)OCC(CC)CCCC (centres undefined) ?
Result :: inactive

* * *

Read-out: Monocyte Chemoattractant Protein-1 (MCP1), CCL2 (gene 6347)
test.protocol: BSK_4H_MCP1: BioMAP Diversity Plus: 4H Assay for Monocyte Chemoattractant Protein-1 (MCP1) Biomarker Activity (AID 2283018)
condition.context: primary human endothelial cells (HUVEC); actives raise or lower the signal
Calls of active or inactive are those of the source. How the source made its calls: active means hit-call score of the fitted dose curve at least 0.9, where 1 is the maximum; inactive means score below 0.9.
Permitted responses: true (active), false (inactive)

INSERT INTO assay_data (molecule, category_label) VALUES
  ('N#Cc1cc(Br)c(O)c(Br)c1', 'true'),
  ('O=C(Nc1ccccc1)Nc1ccnc(Cl)c1', 'true');

Query :: Short answer needed: outcome of this test for Cc1c(F)c(F)c(COC(=O)C2C(/C=C(\Cl)C(F)(F)F)C2(C)C)c(F)c1F (configuration not stated) ?
Result :: false

Query :: Short answer needed: outcome of this test for CCOC(=O)C(Cl)Cc1cc(-n2nc(C)n(C(F)F)c2=O)c(F)cc1Cl (configuration not stated) ?
Result :: false

Query :: Short answer needed: outcome of this test for COc1ccc(C(c2ccc(OC)cc2)C(Cl)(Cl)Cl)cc1 ?
Result :: true

Query :: Short answer needed: outcome of this test for CCNc1nc(Cl)nc(NC(C)C)n1 ?
Result :: false
